Give pIC50 for every item shown.
Molecular target: Metabotropic glutamate receptor 2 (Rattus norvegicus, UniProt P31421)
Sequence (P31421 whole entry): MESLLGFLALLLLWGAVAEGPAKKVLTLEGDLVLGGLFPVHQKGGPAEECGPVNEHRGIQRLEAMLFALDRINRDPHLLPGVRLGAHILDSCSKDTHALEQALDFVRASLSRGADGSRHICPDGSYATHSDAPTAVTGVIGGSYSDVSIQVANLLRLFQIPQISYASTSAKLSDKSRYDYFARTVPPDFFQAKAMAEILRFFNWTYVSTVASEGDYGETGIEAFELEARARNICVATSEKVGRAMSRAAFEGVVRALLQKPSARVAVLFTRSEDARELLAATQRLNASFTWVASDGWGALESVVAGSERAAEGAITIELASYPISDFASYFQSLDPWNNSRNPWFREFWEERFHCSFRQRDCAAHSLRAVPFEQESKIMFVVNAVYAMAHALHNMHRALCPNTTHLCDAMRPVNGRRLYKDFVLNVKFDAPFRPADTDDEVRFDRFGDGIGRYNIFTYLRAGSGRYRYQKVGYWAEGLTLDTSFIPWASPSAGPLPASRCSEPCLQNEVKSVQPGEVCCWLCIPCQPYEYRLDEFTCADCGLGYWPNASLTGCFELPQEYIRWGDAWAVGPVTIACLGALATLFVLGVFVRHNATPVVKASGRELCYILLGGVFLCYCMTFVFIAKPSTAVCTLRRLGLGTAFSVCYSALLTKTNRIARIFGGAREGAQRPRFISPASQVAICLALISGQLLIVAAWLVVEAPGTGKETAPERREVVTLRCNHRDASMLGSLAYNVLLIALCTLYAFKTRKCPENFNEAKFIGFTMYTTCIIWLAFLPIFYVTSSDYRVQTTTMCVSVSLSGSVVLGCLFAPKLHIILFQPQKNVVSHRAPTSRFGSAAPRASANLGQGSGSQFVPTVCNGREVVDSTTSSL
Experiment: Antagonist activity at recombinant rat mGluR2 expressed in forskolin-stimulated CHO cells assessed as inhibition of (1S,3R)-ACPD induced cAMP production
Type: functional, cell-based
Scale explanation: pIC50 corresponds to minus log10 of a concentration expressed in moles per litre.

pIC50 for Cc1cc2c(cc1C(F)(F)F)NC(=O)CC(c1cccc(-c3ccnnc3)c1)=N2 is 7.14

# pIC50 of Cc1cc(-c2cccc(C3=Nc4cc(C(F)(F)F)c(C(F)(F)F)cc4NC(=O)C3)c2)cc(C)n1 = 8.15

Consider CCc1ccc(-c2cccc(C3=Nc4cc(C)c(C(F)(F)F)cc4NC(=O)C3)c2)cn1 . Its measured pIC50 is 7.74

Lab note: measured pIC50 of Cc1cc2c(cc1C(F)(F)F)NC(=O)CC(c1cccc(-c3cncnc3)c1)=N2 was 7.32

Form field pIC50, entry O=C1CC(c2cccc(-n3ccnn3)c2)=Nc2ccc(-c3ccccc3F)cc2N1 : 7.57

// pIC50 value for Cc1cc2c(cc1C(F)(F)F)NC(=O)CC(c1cccc(-c3ccnc(C4CCCC4)c3)c1)=N2 : 8.15

Sure, the documented pIC50 for Cc1cc(-c2cccc(C3=Nc4ccc(C(F)(F)F)cc4NC(=O)C3)c2)ccn1 is 7.44

Item: Cc1cc(-c2cccc(C3=Nc4cc(Cl)c(Cl)cc4NC(=O)C3)c2)ccn1 | pIC50: 8.70

Please fill in: pIC50 reported for Cc1cc(-c2cccc(C3=Nc4cc(C)c(C(F)(F)F)cc4NC(=O)C3)c2)cc(C2CC2)n1 = 8.40
